System: 4T1
Assay: % inhibition of 4T1 cell number vs DMSO control; higher = stronger growth inhibition
Details: 1 µM; 3 days; substrate: lung fibroblast-derived matrix
// reported % inhibition of 4T1 cell number per item
The reply should be a number in %, with the unit left off.

Sample answers from the record:
>  <molecule>
O=C1NC(=O)C(c2cn(CCCO)c3ncccc23)=C1c1cnccn1

>  <units_of_measure>
%

>  <% inhibition of 4T1 cell number>
0.393

$$$$
>  <molecule>
COc1cc2ncnc(Nc3cccc(Cl)c3)c2cc1OC

>  <units_of_measure>
%

>  <% inhibition of 4T1 cell number>
-4.35

$$$$

In: Dear colleague, please send me the reported % inhibition of 4T1 cell number for O=C(O)C=Cc1cc(Br)c(Br)c(Br)c1Br when you can.
Out: 2.78

In: Provide % inhibition of 4T1 cell number value for the following molecule: Cn1c(O)c(-c2[nH]c3ccccc3c2N=O)c2ccc(Br)cc21 [GSK-3 Inhibitor IX, Control, MeBIO]
Out: 16

In: Return reported % inhibition of 4T1 cell number. Input molecule: O=C1NC(=O)C(c2c[nH]c3ccccc23)=C1c1c[nH]c2ccccc12 [Bisindolylmaleimide IV]
Out: 47.8

In: Give a short answer stating reported % inhibition of 4T1 cell number for CNc1cc2c(Nc3cccc(Br)c3)ncnc2cn1 .
Out: 25.4

In: Kindly indicate its recorded % inhibition of 4T1 cell number. Item: CCCCCCOC(=O)[C@]1(O)C[C@@H]2O[C@@]1(C)n1c3ccccc3c3c4c(c5c6ccccc6n2c5c31)C(=O)NC4
Out: -8.63

---

Tested on: 4T1
Assay: % inhibition of 4T1 cell number vs DMSO control; higher = stronger growth inhibition
Conditions: 1 µM; 3 days; substrate: plastic
Entry flag: T if % inhibition of 4T1 cell number reaches -50%; F if it does not.

// known answers, use as guide
>  <compound_structure>
Cn1c2ccccc2c2c3c(c4c5ccccc5n(CCC#N)c4c21)CNC3=O

>  <class_label>
T

$$$$
>  <compound_structure>
O=c1c(O)c(-c2ccc(O)c(O)c2)oc2cc(O)c(O)c(O)c12

>  <class_label>
T

$$$$
>  <compound_structure>
O=[N+]([O-])c1ccc(-c2nc(-c3ccc(F)cc3)c(-c3ccncc3)[nH]2)cc1

>  <class_label>
F

$$$$
>  <compound_structure>
O=C1c2ccccc2-c2n[nH]c3cccc1c23

>  <class_label>
F

$$$$
>  <compound_structure>
O=C(O)c1ccc2c3c1cccc3c(=O)n1c3ccccc3nc21

>  <class_label>
T

$$$$
>  <compound_structure>
CC(=O)O/N=C1/C(c2c(O)[nH]c3cc(Br)ccc23)=Nc2ccccc21

>  <class_label>
T

$$$$

In: Decide: % inhibition of 4T1 cell number of COc1cc(OC)c(C=C2C(=O)Nc3ccccc32)c(OC)c1 >= -50%?
Out: T

In: Textbook exercise: given the entry COc1cc2ncnc(Nc3ccc(O)c(Br)c3)c2cc1OC , state whether its % inhibition of 4T1 cell number is greater than or equal to -50%.
Out: F

In: State whether the measured % inhibition of 4T1 cell number reaches -50%, counting equality as reaching it, for COc1cc2ncnc(Nc3ccc(Oc4ccccc4)cc3)c2cc1OC
Out: T

---

Tested on: 4T1
Assay: % inhibition of 4T1 cell number vs DMSO control; higher = stronger growth inhibition
Details: 1 µM; 3 days; substrate: Matrigel
Everything with % inhibition of 4T1 cell number lower than 20% is NOT MET; everything else, including exactly 20%, is MET.

>  <compound>
N#C/C(=C\c1ccc(O)c(O)c1)C(=O)NCc1ccccc1

>  <class_label>
NOT MET

$$$$
>  <compound>
COc1cc2ncc(-c3ccccc3)nc2cc1OC

>  <class_label>
MET

$$$$
>  <compound>
CC[C@@H](CO)Nc1nc(NCc2ccc(-c3ccccn3)cc2)c2ncn(C(C)C)c2n1 [CR8, (S)-Isomer]

>  <class_label>
MET

$$$$

In: Hi, just wondering whether Nc1ncnc2c1c(I)cn2[C@@H]1O[C@H](CO)[C@@H](O)[C@H]1O shows % inhibition of 4T1 cell number of 20% or higher.
Out: NOT MET

In: Reported % inhibition of 4T1 cell number reaches at least 20% for CCN(CC)CCNC(=O)c1c(C)[nH]c(/C=C2\C(=O)Nc3ccc(Cl)cc32)c1C ?
Out: MET

In: Could you verify whether the entry O=C(Nc1cccc(Nc2nccc(Nc3cccc(C(F)(F)F)c3)n2)c1)C1CC1 shows % inhibition of 4T1 cell number of no less than 20%?
Out: MET

In: Please check the record O=c1cc(N2CCOCC2)oc2c(-c3ccccc3)cccc12 and state if its % inhibition of 4T1 cell number is at or above 20%.
Out: NOT MET

In: Threshold query (% inhibition of 4T1 cell number >= 20%) on CSc1nc(-c2ccnc(NC(C)c3ccccc3)c2)c(-c2ccc(F)cc2)[nH]1 (centres undefined)
Out: NOT MET

In: Quick check, % inhibition of 4T1 cell number >= 20%? OCC(O)CCO/N=C1\C(c2c(O)[nH]c3ccccc23)=Nc2ccccc21 (centres undefined)
Out: NOT MET
